Reference source: patent US20210323913A1

Sequence of the target: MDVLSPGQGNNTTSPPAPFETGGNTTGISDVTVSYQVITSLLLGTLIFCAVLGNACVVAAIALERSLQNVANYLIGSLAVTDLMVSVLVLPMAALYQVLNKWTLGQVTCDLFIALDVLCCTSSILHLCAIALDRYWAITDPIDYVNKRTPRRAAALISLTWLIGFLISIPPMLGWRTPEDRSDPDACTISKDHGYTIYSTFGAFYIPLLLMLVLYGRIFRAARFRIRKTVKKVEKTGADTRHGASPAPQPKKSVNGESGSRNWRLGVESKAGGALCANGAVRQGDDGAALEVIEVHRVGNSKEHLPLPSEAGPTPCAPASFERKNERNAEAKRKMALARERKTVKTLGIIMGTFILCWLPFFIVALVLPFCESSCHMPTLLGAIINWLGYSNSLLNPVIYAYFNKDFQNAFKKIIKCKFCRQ
measurement.type: Ki (nM)
Response body: numeric value in nM, unit text excluded.

Query: Ki; subject: CCCN1CCN(c2ccc3c(c2)C(N(C)C(=O)OCc2ccccc2)CCC3)CC1 (stereo not drawn)
156

Field request: Ki | item: CCN(CC)C(=O)CCN1CCN(c2ccc3c(c2)C(N(C)C(=O)OCc2ccccc2)CCC3)CC1 (stereo not drawn)
335

Form field: reported Ki of CCCN(C(=O)OCc1ccccc1)C1CCCc2ccc(N3CCN(CCC(=O)OCC)CC3)cc21 (stereo not drawn)
569

Value lookup for Ki; key = CN(C(=O)OCc1ccccc1)C1CCCc2ccc(N3CCN(C4CCCC4)CC3)cc21 (stereo not drawn)
367

Recorded Ki of CN(C(=O)OCc1ccccc1)C1CCCc2ccc(N3CCN(CCCO)CC3)cc21 (stereo not drawn) , please.
528

Suppose we examine the compound CCCN1CCN(c2ccc3c(c2)C(N(CCC)C(=O)OCc2ccccc2)CCC3)CC1 (stereo not drawn) ; what Ki value has been reported?
3800
